Molecular target: the molecule itself
Test: SEC; re-chromatography after Factor Xa cleavage of the MBP tag; HiLoad 16/600 Superdex 200, 20 mM HEPES pH 7.0, 200 mM NaCl, 4 °C; tetrameric fraction pooled
recorded_metric: stoichiometry N
API note: the answer field is a bare number with no unit suffix.

## Input # lookup: stoichiometry N of MCAD p.Ala52Val (enzyme, human, UniProt P11310-1 26-421, looked up, medium-chain acyl-CoA dehydrogenase (MCAD), human, ACADM cDNA in pMALc2X with a missense mutation found in newborn screening; number counts on the precursor (initiator methionine +1); also called p.Ala27Val; A27V; source: E. coli DH5α co-transformed with pGroESL, purified (MBPTrap, SEC, Factor Xa cleavage, SEC); not shown: MBP, N-terminal, cleaved) KANRQREPGLGFSFEFTEQQKEFQATVRKFAREEIIPVAAEYDKTGEYPVPLIRRAWELGLMNTHIPENCGGLGLGTFDACLISEELAYGCTGVQTAIEGNSLGQMPIIIAGNDQQKKKYLGRMTEEPLMCAYCVTEPGAGSDVAGIKTKAEKKGDEYIINGQKMWITNGGKANWYFLLARSDPDPKAPANKAFTGFIVEADTPGIQIGRKELNMGQRCSDTRGIVFEDVKVPKENVLIGDGAGFKVAMGAFDKTRPVVAAGAVGLAQRALDEATKYALERKTFGKLLVEHQAISFMLAEMAMKVELARMSYQRAAWEVDSGRRNTYYASIAKAFAGDIANQLATDAVQILGGNGFNTEYPVEKLMRDAKIYQIYEGTSQIQRLIVAREHIDKYKN
## Output 4
